System: Coxsackievirus B4
Assay method text: microbe, parasite or virus in culture
Recorded conditions: Enterovirus B, Vero
pEC50: −log10 of the molar value.
Measured quantity: pEC50

Molecule | Value observed
Nc1ncnc2c1ncn2CCOCP(=O)(OCCCCCCCCCCO)OCCCCCCCCCCO | < 4.47
Nc1ncnc2c1ncn2CCOCP(=O)(OCCOCCCCCCCCCCO)OCCOCCCCCCCCCCO | < 4.53
NC(=O)c1ncn([C@@H]2O[C@H](CO)[C@@H](O)[C@H]2O)n1 | < 3.60

* * *

Tested on: Influenza B virus
Assay method text: microbe, parasite or virus in culture
Recorded conditions: MDCK

Molecule | EC50
CCOC(=O)C1=C[C@@H](OC(CC)CC)[C@H](NC(C)=O)[C@@H](N)C1 | 23.5 µM
Nc1ncnc2c1ncn2CCOCP(=O)(O)OCCOCCCCCCCCCCO | > 42 µM
Nc1ncnc2c1ncn2CCOCP(=O)(OCCOCCCCCCCCCCO)OCCOCCCCCCCCCCO | > 5.9 µM
